Listed next: entries and their corresponding pEC50.
Biological target: mutant CFTR (Homo sapiens, UniProt P13569, DEL508-508)
Sequence (P13569 with tags, fused parts or gaps DEL508-508): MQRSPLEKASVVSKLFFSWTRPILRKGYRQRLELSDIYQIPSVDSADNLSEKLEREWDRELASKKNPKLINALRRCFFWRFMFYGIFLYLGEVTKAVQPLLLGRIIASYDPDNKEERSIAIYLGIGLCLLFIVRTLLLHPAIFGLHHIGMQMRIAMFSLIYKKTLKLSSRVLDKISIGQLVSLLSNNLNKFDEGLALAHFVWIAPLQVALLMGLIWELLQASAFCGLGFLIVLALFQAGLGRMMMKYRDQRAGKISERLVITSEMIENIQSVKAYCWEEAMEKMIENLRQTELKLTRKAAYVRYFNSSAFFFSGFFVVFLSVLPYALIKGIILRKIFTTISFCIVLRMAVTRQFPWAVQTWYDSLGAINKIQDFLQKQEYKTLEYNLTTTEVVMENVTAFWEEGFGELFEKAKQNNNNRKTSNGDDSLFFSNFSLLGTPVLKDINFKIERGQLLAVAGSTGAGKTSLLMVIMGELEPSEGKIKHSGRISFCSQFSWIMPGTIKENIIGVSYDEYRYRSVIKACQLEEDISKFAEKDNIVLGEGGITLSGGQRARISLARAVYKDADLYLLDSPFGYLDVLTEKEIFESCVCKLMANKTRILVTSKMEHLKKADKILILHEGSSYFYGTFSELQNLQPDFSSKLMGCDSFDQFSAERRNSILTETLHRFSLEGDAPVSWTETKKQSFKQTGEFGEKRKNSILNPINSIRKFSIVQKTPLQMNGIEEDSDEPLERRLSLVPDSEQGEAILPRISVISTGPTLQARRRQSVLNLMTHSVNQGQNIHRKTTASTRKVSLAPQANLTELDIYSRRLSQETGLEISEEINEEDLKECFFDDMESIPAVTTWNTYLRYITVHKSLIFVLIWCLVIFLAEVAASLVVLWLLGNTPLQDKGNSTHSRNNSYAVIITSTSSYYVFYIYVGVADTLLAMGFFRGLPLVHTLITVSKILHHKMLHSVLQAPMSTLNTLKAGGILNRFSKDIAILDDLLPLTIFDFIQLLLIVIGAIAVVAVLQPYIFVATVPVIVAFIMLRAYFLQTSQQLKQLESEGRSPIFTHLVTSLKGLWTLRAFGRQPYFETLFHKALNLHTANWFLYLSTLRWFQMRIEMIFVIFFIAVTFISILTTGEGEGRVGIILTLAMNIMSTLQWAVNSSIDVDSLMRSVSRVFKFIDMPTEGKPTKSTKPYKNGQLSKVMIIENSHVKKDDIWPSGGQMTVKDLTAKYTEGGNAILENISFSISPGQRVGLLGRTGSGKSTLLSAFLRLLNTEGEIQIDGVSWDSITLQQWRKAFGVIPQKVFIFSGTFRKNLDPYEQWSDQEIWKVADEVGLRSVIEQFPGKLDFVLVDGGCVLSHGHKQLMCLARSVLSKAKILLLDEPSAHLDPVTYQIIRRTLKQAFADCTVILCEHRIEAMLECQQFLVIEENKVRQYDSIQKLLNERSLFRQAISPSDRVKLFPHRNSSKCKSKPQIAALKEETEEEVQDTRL
Experiment: Fluorescence (HS-YFP) assay for CFTR activity, corrector assay
Settings: CFBE41o- and FRT cells with stable expression of mutant CFTR, 24 h compound treatment
pEC50: −log10 of the molar value.

Cc1nn(-c2cccc(C(=O)N(C)c3ccc4c(c3)OCO4)c2)c(COc2ccc(C(=O)O)cc2)c1Cl: > 6.00
CN(C(=O)c1cccc(-n2nc(C(F)(F)F)c(Cl)c2COc2cnc(C(=O)O)cn2)c1)c1ccc2c(c1)OC(F)(F)O2: > 6.00
[2H]C([2H])([2H])N(C(=O)c1cccc(-n2nc(C(F)(F)F)c(Cl)c2COc2ccc(C(=O)OC(C)(C)C)cc2)c1)c1ccc2c(c1)OC(F)(F)O2: > 6.00
CN(C(=O)c1cccc(-n2nc(C(F)(F)F)c(Cl)c2C2CC2)c1)c1ccc2c(c1)OCO2: > 6.00
CN(C(=O)c1cccc(-n2nc(-c3ccccn3)cc2C(F)(F)F)c1)c1ccc2c(c1)OCO2: 5.70 to 6.00

Give its pEC50 value. Item: Cc1nn(-c2cccc(C(=O)Nc3ccc4c(c3)OCCN4)c2)c(C)c1Cl
< 5.70

Give its pEC50 value. Item: COC(=O)c1ccc(COc2c(Cl)c(C(F)(F)F)nn2-c2cccc(C(=O)N(C)c3cc4c(cc3Cl)OCO4)c2)cc1
> 6.00

Give its pEC50 value. Item: Cc1nc2cc(F)c(N(C)C(=O)c3cccc(-n4nc(C(F)(F)F)c(Cl)c4OCc4ccc(C(=O)O)cc4)c3)cc2o1
> 6.00

Give its pEC50 value. Item: COc1ccc(N(C)C(=O)c2cccc(-n3nc(C)c(Cl)c3C)c2)cn1
< 5.70

Give its pEC50 value. Item: CCOC(=O)c1ccc(OCc2c(Cl)c(C(F)(F)F)nn2-c2cccc(C(=O)N(C)c3ccc4c(c3)OCO4)c2)cc1
> 6.00

Give its pEC50 value. Item: CN(C(=O)c1cccc(-n2nc(C(F)(F)F)cc2-c2cccs2)c1)c1ccc2c(c1)OCO2
> 6.00

Give its pEC50 value. Item: Cc1nn(-c2nccc(C(=O)N(C)c3ccc4c(c3)OCO4)n2)c(C)c1Cl
< 5.70

----------
Listed next: entries and their corresponding EC50.
Target: mutant CFTR (Homo sapiens, UniProt P13569, DEL508-508)
Experiment: Fluorescence (HS-YFP) assay for CFTR activity, corrector assay
Settings: CFBE41o- and FRT cells with stable expression of mutant CFTR, 24 h compound treatment

Reference set, count: 4
CN(C(=O)c1cccc(-n2nc(C(F)(F)F)cc2OCc2ccccc2)c1)c1ccc2c(c1)OCO2: < 1000 nM
CC(C)Oc1c(Cl)c(C(F)(F)F)nn1-c1cccc(C(=O)N(C)c2ccc3c(c2)OCO3)c1: < 1000 nM
COc1nc2cc(NC(=O)c3cccc(-n4nc(C)c(Cl)c4C)c3)ccc2o1: > 2000 nM
Cc1c(Cl)c(C(F)(F)F)nn1-c1cccc(C(=O)N(C)c2ccc3c(c2C=O)OCO3)c1: > 2000 nM

Give its EC50 value. Item: Cc1nn(-c2cccc(C(=O)N(C)c3ccc4c(c3)OCO4)c2)c(C)c1C(=O)O
> 2000 nM

Give its EC50 value. Item: Cc1c(Cl)c(C(F)(F)F)nn1-c1cccc(C(=O)Nc2cc3c(cc2C=O)OCO3)c1
> 2000 nM

Give its EC50 value. Item: Cc1c(Cl)c(C(F)(F)F)nn1-c1cccc(C(=O)Nc2cc3c(cc2Cl)OCO3)c1
> 2000 nM

Give its EC50 value. Item: Cc1nn(-c2cccc(C(=O)N(C)c3ccc4c(c3)CCC4)c2)c(C)c1Cl
< 1000 nM

Give its EC50 value. Item: Cc1c(Cl)c(C(F)(F)F)nn1-c1cc(C(=O)N(C)c2ccc3c(c2)OCO3)ccn1
< 1000 nM

Give its EC50 value. Item: CCc1nc2ccc(N(C)C(=O)c3cccc(-n4nc(C)c(Cl)c4C)c3)cc2o1
< 1000 nM

Give its EC50 value. Item: Cc1nn(-c2cccc(C(=O)N(C)c3cc4c(cc3Cl)OCCO4)c2)c(C)c1Cl
< 1000 nM

Give its EC50 value. Item: CN(C(=O)c1cccc(-n2nc(C(F)(F)F)c(Cl)c2CO)c1)c1ccc2c(c1)OC(F)(F)O2
< 1000 nM

----------
Biological target: F508del-CFTR (Homo sapiens, UniProt P13569, DEL508-508)
Assay: Short-circuit current recordings on human bronchial epithelial cells (F508del/F508del)
Format: cell-based
Parameters: Human bronchial epithelial (HBE) cells obtained from CF patients (F508del/F508del genotype); endogenous in cells; host or cells: primary human bronchial epithelial cells from CF patients, F508del/F508del
Conditions: HBE cells from CF patients (F508del/F508del), 24 hrs treatment; table 3
OBSERVED_PROPERTY: activity on HBE cells (ΔICFTR)

Cc1c(Br)c(C(F)(F)F)nn1-c1cccc(C(=O)N(C)c2ccc3c(c2)OCO3)c1: +++ (ΔICFTR>3.0 μA)
Cc1nn(-c2cccc(C(=O)N(C)c3ccc4c(c3)OCO4)c2)c(C(=O)OC(C)(C)C)c1Cl: +++ (ΔICFTR>3.0 μA)

----------
Listed next: entries and their corresponding pEC50.
Biological target: mutant CFTR (Homo sapiens, UniProt P13569, DEL508-508)
Experiment: Fluorescence (HS-YFP) assay for CFTR activity, corrector assay
Conditions: CFBE41o- and FRT cells with stable expression of mutant CFTR, 24 h compound treatment
pEC50: −log10 of the molar value.

Reference set, count: 3
Cc1nn(-c2cccc(C(=O)N(C)c3ccc4oc(C(F)(F)F)nc4c3)c2)c(C)c1Cl: < 5.70
Cc1nc2ccc(N(C)C(=O)c3cccc(-n4nc(C(F)(F)F)c(Cl)c4OCc4ccc(C(=O)OC(C)(C)C)cc4)c3)cc2o1: > 6.00
CCN(C(=O)c1cccc(-n2nc(C)c(Cl)c2C)c1)c1ccc2c(c1)OCCO2: > 6.00

Give its pEC50 value. Item: CN(C(=O)c1cccc(-n2nc(C(F)(F)F)c(Cl)c2COc2ccc(C(=O)O)cc2)c1)c1cnc2c(c1)OCO2
> 6.00

Give its pEC50 value. Item: Cc1nc2ccc(N(C)C(=O)c3cccc(-n4nc(C(F)(F)F)cc4OCc4ccc(C(=O)OC(C)(C)C)cc4)c3)cc2o1
> 6.00

Give its pEC50 value. Item: COc1cccc(N(C)C(=O)c2cccc(-n3nc(C)c(Cl)c3C)c2)c1
> 6.00

Give its pEC50 value. Item: CN(C(=O)c1cccc(-n2nc(C(F)(F)F)c(Cl)c2-c2ccccc2)c1)c1ccc2c(c1)OCO2
> 6.00

Give its pEC50 value. Item: CN(C(=O)c1cccc(-n2nc(C(F)(F)F)c(Cl)c2COc2ccc(C(=O)O)cc2)c1)c1ccc2c(c1)OC(F)(F)O2
> 6.00

Give its pEC50 value. Item: CN(C(=O)c1cccc(-n2nc(C(F)(F)F)c(C#N)c2Oc2ccc(C(=O)OC(C)(C)C)cc2)c1)c1ccc2c(c1)OCO2
> 6.00

Give its pEC50 value. Item: Cc1nn(-c2cccc(C(=O)N(C)c3ccc4c(c3)NCCO4)c2)c(C)c1Cl [compound 038, 2,2,2-trifluoroacetate]
< 5.70

Give its pEC50 value. Item: Cc1cc(C(F)(F)F)nn1-c1cccc(C(=O)N(C)c2ccc3c(c2)OCO3)c1
5.70 to 6.00

----------
Molecular target: mutant CFTR (Homo sapiens, UniProt P13569, DEL508-508)
Assay: Fluorescence (HS-YFP) assay for CFTR activity, corrector assay
Settings: CFBE41o- and FRT cells with stable expression of mutant CFTR, 24 h compound treatment
OBSERVED_PROPERTY: EC50

Reference set, count: 4
Cc1cn2cc(N(C)C(=O)c3cccc(-n4nc(C)c(Cl)c4C)c3)ccc2n1 [compound 077]: < 1000 nM
COC(=O)c1ccc(COc2c(Cl)c(C(F)(F)F)nn2-c2cccc(C(=O)N(C)c3ccc4c(c3)OCO4)c2)cc1 [compound 155]: < 1000 nM
CN(C(=O)c1cccc(-n2cccn2)c1)c1ccc2c(c1)OCCO2 [compound 010]: > 2000 nM
Cc1nn(-c2cccc(C(=O)N(c3ccc4c(c3)OCCO4)C3CC3)c2)c(C)c1Cl [compound 030]: > 2000 nM

Give its EC50 value. Item: Cc1nn(-c2cccc(C(=O)Nc3ccc4oc(C5CC5)nc4c3)c2)c(C)c1Cl [Int-053]
> 2000 nM

Give its EC50 value. Item: O=C(Nc1ccc2c(c1)OCO2)c1cccc(-n2nc(C(F)(F)F)c(Cl)c2C2CC2)c1 [compound 165]
> 2000 nM

Give its EC50 value. Item: Cc1nn(-c2cccc(S(=O)(=O)N(C)c3ccc4c(c3)OCCO4)c2)c(C)c1Cl [compound 020]
1000 to 2000 nM

Give its EC50 value. Item: CN(C(=O)c1cccc(-n2nc(C(F)(F)F)c(Cl)c2OCc2ccc(C(=O)OC(C)(C)C)cc2)c1)c1ccc2c(c1)OC(F)(F)O2 [compound 201]
< 1000 nM

Give its EC50 value. Item: Cc1nn(-c2cccc(C(=O)N(C)c3ccc4ocnc4c3)c2)c(C)c1Cl [compound 029]
> 2000 nM

Give its EC50 value. Item: Cc1nn(-c2cccc(C(=O)N(C)c3ccc4c(c3)COC4)c2)c(C)c1Cl [compound 057]
1000 to 2000 nM

Give its EC50 value. Item: CN(C(=O)c1cccc(-n2nc(C(F)(F)F)cc2-c2ccc(Cl)s2)c1)c1ccc2c(c1)OCO2 [compound 164]
< 1000 nM

Give its EC50 value. Item: Cc1nn(-c2cccc(C(=O)N(C)c3ccc4c(c3)OCCO4)c2)c(C)c1C(C)(C)C [compound 037]
1000 to 2000 nM

Give its EC50 value. Item: Cc1cc(C)n(-c2cccc(S(=O)(=O)N(C)c3ccc4c(c3)OCCO4)c2)n1 [compound 017]
> 2000 nM

Give its EC50 value. Item: Cc1c(Cl)c(C(F)(F)F)nn1-c1cccc(C(=O)N(C)c2cc3c(cc2C=O)OCO3)c1 [compound 161]
1000 to 2000 nM

Give its EC50 value. Item: Cc1c(N(C)C(=O)c2cccc(-n3nc(C(F)(F)F)c(Cl)c3C)c2)ccc2c1OCO2 [compound 269]
> 2000 nM

Give its EC50 value. Item: CC(C)(C)OC(=O)c1ccc(OCc2c(Cl)c(C(F)(F)F)nn2-c2cccc(C(=O)Nc3ccc4c(c3)OC(F)(F)O4)c2)cc1 [Int-172]
> 2000 nM

src = patent US12492193B2
